Target: glutathione-S-transferase-labeled FXR human protein (Homo sapiens, UniProt Q96RI1)
Construct: purchased Invitrogen
Sequence (Q96RI1 whole entry): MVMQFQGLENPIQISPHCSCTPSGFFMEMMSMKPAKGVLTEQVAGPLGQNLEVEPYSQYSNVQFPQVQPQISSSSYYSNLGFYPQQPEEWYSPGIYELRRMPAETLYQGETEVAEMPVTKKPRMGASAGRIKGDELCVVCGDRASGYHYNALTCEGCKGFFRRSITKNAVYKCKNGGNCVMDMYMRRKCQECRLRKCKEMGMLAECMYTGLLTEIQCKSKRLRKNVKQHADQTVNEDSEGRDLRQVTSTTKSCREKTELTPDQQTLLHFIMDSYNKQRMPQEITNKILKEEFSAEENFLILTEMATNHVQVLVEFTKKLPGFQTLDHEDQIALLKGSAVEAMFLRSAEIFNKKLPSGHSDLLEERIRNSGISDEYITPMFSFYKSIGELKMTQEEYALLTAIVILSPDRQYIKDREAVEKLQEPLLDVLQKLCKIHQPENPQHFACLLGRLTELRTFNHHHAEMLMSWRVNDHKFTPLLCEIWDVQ
Assay: FXR biochemical experiment (alphascreen, coactivator recruitment)
Conditions: highest signal relative to reference compound obeticholic acid (Examples 31-47); read-out: FXR enzyme activity Efficacy (activation efficacy percent)
quantity_name: Emax (%)

O=C(O)c1ccc(N2C(=O)CCc3cc(OCc4c(-c5c(Cl)cccc5Cl)noc4C4CC4)ccc32)cc1    127
Cc1cc(C(=O)O)cnc1N1C(=O)CCc2cc(OCc3c(-c4c(Cl)cccc4Cl)noc3C3CC3)ccc21    153
O=C(O)c1cccc(N2C(=O)CCc3cc(OCc4c(-c5c(Cl)cccc5Cl)noc4C4CC4)ccc32)c1    95
Cn1cc(C(=O)O)c2ccc(N3C(=O)CCc4cc(OCc5c(-c6c(Cl)cccc6Cl)noc5C5CC5)ccc43)cc21    115

###

Target: glutathione-S-transferase-labeled FXR human protein (Homo sapiens, UniProt Q96RI1)
Construct: purchased Invitrogen
Test: FXR biochemical experiment (alphascreen, coactivator recruitment)
Details: highest signal relative to reference compound obeticholic acid (Examples 31-47); read-out: FXR enzyme activity Efficacy (activation efficacy percent)
quantity_name: Emax (%)

O=C(O)c1cc(N2C(=O)CCc3cc(OCc4c(-c5c(Cl)cccc5Cl)noc4C4CC4)ccc32)ccc1F    137
O=C(O)c1ccc(N2C(=O)CCc3cc(OCc4c(-c5c(Cl)cccc5Cl)noc4C4CC4)ccc32)c(Cl)c1    135
O=C(O)c1ccc(N2C(=O)CCc3cc(OCc4c(-c5c(Cl)cccc5Cl)noc4C4CC4)ccc32)s1    126
COc1cc(C(=O)O)ccc1N1C(=O)CCc2cc(OCc3c(-c4c(Cl)cccc4Cl)noc3C3CC3)ccc21    117
O=C(O)c1cnc(N2C(=O)CCc3cc(OCc4c(-c5c(Cl)cccc5Cl)noc4C4CC4)ccc32)s1    118
O=C(O)c1csc(N2C(=O)CCc3cc(OCc4c(-c5c(Cl)cccc5Cl)noc4C4CC4)ccc32)c1    117
N#Cc1cc(C(=O)O)ccc1N1C(=O)CCc2cc(OCc3c(-c4c(Cl)cccc4Cl)noc3C3CC3)ccc21    140
O=C(O)c1ccc(N2C(=O)CCc3cc(OCc4c(-c5c(Cl)cccc5Cl)noc4C4CC4)ccc32)cc1O    153
O=C(O)c1cnc(N2C(=O)CCc3cc(OCc4c(-c5c(Cl)cccc5Cl)noc4C4CC4)ccc32)c(F)c1    161
O=C(O)c1ccc(N2C(=O)CCc3cc(OCc4c(-c5c(Cl)cccc5Cl)noc4C4CC4)ccc32)c(F)c1    140
O=C(O)c1ccc(N2C(=O)CCc3cc(OCc4c(-c5c(Cl)cccc5Cl)noc4C4CC4)ccc32)nc1    117

###

Molecular target: glutathione-S-transferase-labeled FXR human protein (Homo sapiens)
Assay: FXR biochemical experiment (alphascreen, coactivator recruitment)
Details: alphascreen; activation of FXR binding reaction with steroid receptor coactivator; read-out: FXR enzyme activity EC50
quantity_name: EC50 (µM)

O=C(O)c1ccc(N2C(=O)C3(CC3)c3ccc(OCc4c(-c5c(Cl)cccc5Cl)noc4C4CC4)cc32)cc1    1.76
O=C(O)c1cncc(N2C(=O)C3(CC3)c3cc(OCc4c(-c5c(Cl)cccc5Cl)noc4C4CC4)ccc32)c1    0.61
O=C(O)c1ccc(N2C(=O)CCc3cc(OCc4c(-c5c(Cl)cccc5Cl)noc4C4CC4)ccc32)nc1    0.058
O=C(O)c1ccc(N2C(=O)C3(CC3)c3cc(OCc4c(-c5c(Cl)cccc5Cl)noc4C4CC4)ccc32)nc1    0.18
O=C(O)c1ccc(CN2C(=O)C3(CC3)c3cc(OCc4c(-c5c(Cl)cccc5Cl)noc4C4CC4)ccc32)cc1    0.29
O=C(O)c1cccc(N2C(=O)C3(CC3)c3cc(OCc4c(-c5c(Cl)cccc5Cl)noc4C4CC4)ccc32)c1    0.24
Cc1sc(N2C(=O)C3(CC3)c3cc(OCc4c(-c5c(Cl)cccc5Cl)noc4C4CC4)ccc32)nc1C(=O)O    0.82
O=C(O)c1ccc(N2C(=O)C3(CC3)c3cc(OCc4c(-c5c(Cl)cccc5Cl)noc4C4CC4)ccc32)cc1Cl    0.41
COc1cc(N2C(=O)C3(CC3)c3cc(OCc4c(-c5c(Cl)cccc5Cl)noc4C4CC4)ccc32)ccc1C(=O)O    1.56
Cn1cc(C(=O)O)c2ccc(N3C(=O)C4(CC4)c4cc(OCc5c(-c6c(Cl)cccc6Cl)noc5C5CC5)ccc43)cc21    0.2

I. O=C(O)c1cccc(CN2C(=O)C3(CC3)c3cc(OCc4c(-c5c(Cl)cccc5Cl)noc4C4CC4)ccc32)c1
II. O=C(O)CCN1C(=O)C2(CC2)c2cc(OCc3c(-c4c(Cl)cccc4Cl)noc3C3CC3)ccc21
Query block: Sorting ascending by EC50, which comes first: I or II ? Answer format: the label of the selected item.
Result block: I

a. O=C(O)c1ccc(N2C(=O)CCc3cc(OCc4c(-c5c(Cl)cccc5Cl)noc4C4CC4)ccc32)c(Cl)c1
b. Cn1cc(C(=O)O)c2ccc(N3C(=O)CCc4cc(OCc5c(-c6c(Cl)cccc6Cl)noc5C5CC5)ccc43)cc21
Query block: Recorded EC50 values differ for a and b ; which one is higher? Answer format: the label of the selected item.
Result block: a
(a: 0.069 µM, b: 0.043 µM)

P. O=C(O)c1ccc(N2C(=O)C3(CC3)c3cc(OCc4c(-c5ccccc5OC(F)(F)F)noc4C4CC4)ccc32)cc1
Q. CC1(C)C(=O)N(c2cccc(C(=O)O)c2)c2ccc(OCc3c(-c4c(Cl)cccc4Cl)noc3C3CC3)cc21
Query block: Sorting ascending by EC50, which comes first: P or Q ? Answer format: the label of the selected item.
Result block: Q
(Q: 0.23 µM, P: 0.65 µM)
